meta.source: paper PMC2674315

Target: T1, EphA2-Sam double mutant (H924N, R950A) (human, UniProt P29317 901-976, H924N | R950A)
T1 sequence (looked up): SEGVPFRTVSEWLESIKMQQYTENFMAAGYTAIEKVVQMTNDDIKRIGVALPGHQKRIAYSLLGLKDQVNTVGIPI
Experiment: ITC
pKd: −log10 of the molar value.
PARAMETER: pKd

* Sam domain of Ship2 (Src homology 2 domain-containing phosphoinositide-5-phosphatase 2) (domain or fragment, human, UniProt O15357 1194-1258, looked up) SGLGEAGMSAWLRAIGLERYEEGLVHNGWDDLEFLSDITEEDLEEAGVQDPAHKRLLLDTLQLSK | 5.74
